STATED_CONDITIONS: in isobutanol, 288.15 K
RECORDED_ENDPOINT: solubility (mole fraction)
API note: the answer field is a bare number with no unit suffix.

Which value of solubility (mole fraction) has been reported for Nc1cccc2ccccc12 in the records?
0.157

----------
STATED_CONDITIONS: in cyclohexane, 283.15 K
RECORDED_ENDPOINT: solubility (mole fraction)
Lab note: write the figure by itself, no unit.

Fill in: solubility (mole fraction) of Nc1cccc2ccccc12 is ___
0.00992

----------
STATED_CONDITIONS: in methanol, 298.15 K
RECORDED_ENDPOINT: solubility (mole fraction)
Lab note: jot down the number only; don't add units.

Would you kindly share the measured solubility (mole fraction) for Nc1cccc2ccccc12 ?
0.591
